System: P388 leukemia ip, CD2F1 mice, survival T/C
assay comment: NCI In Vivo Anticancer Drug Screen. Data for tumor model P388 Leukemia (intraperitoneal) in CD2F1 (CDF1) mice
measurement conditions: endpoint: median survival time; dose: 25.0 mg/kg/injection; schedule: Q01DX009 (ip); vehicle: saline
Toxic doses and inconclusive results are not listed. Rule for the calls: active = survival T/C of 150% or more; inactive = T/C below 125% in these data.
Respond using exactly one of the listed classes: active, inactive

Solved cases (3 shown):
OC(Nc1nccs1)C(F)(F)F (centres undefined) | inactive
Nc1ncn(C2OC(CO)C(O)C2O)c(=O)n1 (centres undefined) | active
CCC1CCCCN1C (centres undefined) | inactive

Please indicate how the test categorized O=S1(=O)C2C=CC1CCCC2 .
inactive

And what about the molecule Cc1ccc(NC(=O)Oc2cc(C)c(Br)c(C)c2)cc1[N+](=O)[O-] ?
inactive

And what about the molecule CCOC(=O)C[n+]1cccc(S(=O)(=O)NC)c1 ?
inactive

And what about the molecule COC[N+](C)(C)c1ccc(/C=C/C=O)cc1 ?
inactive

And what about the molecule Nc1nc([Se])c2ncn(C3OC(CO)C(O)C3O)c2n1 (centres undefined) ?
active

And what about the molecule CN(C)CCCNC1=C(Cl)C(=O)C(NCCCN(C)C)=C(Cl)C1=O ?
inactive

* * *

Tested on: P388 leukemia ip, CD2F1 mice, survival T/C
assay comment: NCI In Vivo Anticancer Drug Screen. Data for tumor model P388 Leukemia (intraperitoneal) in CD2F1 (CDF1) mice
measurement conditions: endpoint: median survival time; dose: 100.0 mg/kg/injection; schedule: Q01DX005 (ip); vehicle: Klucel (hydroxypropylcellulose) (HPC); higher = longer survival
Toxic doses and inconclusive results are not listed.
experimental endpoint: T/C

A selection of reference data follows.
CCOC(=O)CNc1sc(=S)[nH]c1C(=O)OCC | 91 % of control
CCOC(=O)c1cnc2c(ccc3cc(OC)ccc32)c1NCCCN(CC)CC | 100 % of control
OC1C=CC2C(CC1)C1(c3ccccc3)OC2(c2ccccc2)c2ccccc21 (stereo unspecified) | 98 % of control
O=C(CN1CCNCC1)N1CCCC1 | 97 % of control

Give recorded T/C with P388 leukemia ip, CD2F1 mice, survival T/C for the following compound: COc1cc(-c2nc(SC)n[nH]2)cc(OC)c1OC
104 % of control

And what about the compound COC(=O)NC1=CCC(C(C)(C)C)CC1 (stereo unspecified) ?
106 % of control

* * *

Let's look at some compounds and their measured T/C.
System: P388 leukemia ip, CD2F1 mice, survival T/C
assay comment: NCI In Vivo Anticancer Drug Screen. Data for tumor model P388 Leukemia (intraperitoneal) in CD2F1 (CDF1) mice
measurement conditions: endpoint: median survival time; dose: 3.13 mg/kg/injection; schedule: Q01DX009 (ip); vehicle: saline with Tween-80; higher = longer survival
Inconclusive results and toxic doses are left out.

Cc1[nH]c2ccc(N(C)C)cc2c(=O)c1CNCc1ccccc1 | 107 % of control
CCCCCCCCCCCCCCCCNCC(O)CN (centres undefined) | 102 % of control
COc1ccc(/C=N\NC(=O)CNC(=O)Nc2cccc(C(F)(F)F)c2)cc1OC | 112 % of control

Let us examine a further case.
// returns reported T/C for input COC(=O)/C=C(\I)C(=O)OC
104 % of control

* * *

Test system: P388 leukemia ip, CD2F1 mice, survival T/C
assay comment: NCI In Vivo Anticancer Drug Screen. Data for tumor model P388 Leukemia (intraperitoneal) in CD2F1 (CDF1) mice
measurement conditions: endpoint: median survival time; dose: 25.0 mg/kg/injection; schedule: Q01DX005 (ip); vehicle: saline with Tween-80; higher = longer survival
Method: The antitumor activity of compounds was measured in mice bearing transplantable tumors. Survival or tumor size were measured and the results are expressed as the measurement made in the treated group (T) divided by the measurement made in the vehicle treated control group (C). The tumor model used in this assay is P388 Leukemia (intraperitoneal) in CD2F1 (CDF1) mice
Toxic doses and inconclusive results are not listed.
experimental endpoint: T/C

A selection of reference data follows.
COc1ccc(CC2=CC(=O)C(C)=CC2=O)cc1 | 97 % of control
C(=C\c1ccnc2c1ccc1ccccc12)/c1ccccc1 | 96 % of control
CC(C)(C)c1cc(CCCCCCCC2(CCCCCCCc3cc(C(C)(C)C)cc(C(C)(C)C)c3)OC(COCCOCCOCCCC#N)C(COCCOCCOCCCC#N)O2)cc(C(C)(C)C)c1 (stereo not given) | 97 % of control
OC1(c2ccccc2)c2ccccc2NC2=NCCN21 (stereo not given) | 105 % of control

Let us examine a further case.
// returns reported T/C for input COC(=O)c1cc(=O)nc(N/N=C/c2ccc3c(c2)OCO3)s1
94 % of control

* * *

System: P388 leukemia ip, CD2F1 mice, survival T/C
assay comment: NCI In Vivo Anticancer Drug Screen. Data for tumor model P388 Leukemia (intraperitoneal) in CD2F1 (CDF1) mice
measurement conditions: endpoint: median survival time; dose: 120.0 mg/kg/injection; schedule: Q01DX005 (ip); vehicle: saline with Tween-80; higher = longer survival
Inconclusive results and toxic doses are left out.
experimental endpoint: T/C

A selection of reference data follows.
Nc1nnc(-c2ccc[n+]([O-])c2)o1 | 102 % of control
Clc1ccc2ccc3ccc(Cl)nc3c2n1 | 89 % of control
C(=N\N=C1c2ccccc2-c2ccccc21)/c1ccc2ccc3cccc4ccc1c2c34 | 88 % of control
O=C1NC(=O)C2(N1)C1CCCC2C(c2ccccc2)NC1c1ccccc1 (configuration not stated) | 91 % of control
COC(=O)c1nn2c(=O)n(C(C)=O)c3ccccc3c2c1C(=O)OC | 109 % of control

// returns reported T/C for input CCn1c(=O)n(Cc2ccccc2)c(=O)c2ccccc21
93 % of control

* * *

System: P388 leukemia ip, CD2F1 mice, survival T/C
assay comment: NCI In Vivo Anticancer Drug Screen. Data for tumor model P388 Leukemia (intraperitoneal) in CD2F1 (CDF1) mice
measurement conditions: endpoint: median survival time; dose: 50.0 mg/kg/injection; schedule: Q01DX009 (ip); vehicle: saline with Tween-80; higher = longer survival
Inconclusive results and toxic doses are left out.
experimental endpoint: T/C

A selection of reference data follows.
COC(=O)C(O)NC(N)=O (configuration not stated) | 98 % of control
COc1cc2c(cc1OC)-c1nc(Nc3ccccc3)sc1CC2 | 106 % of control
O=C(Nc1ccc(S(=O)(=O)c2ccc(NC(=O)c3ccco3)cc2)cc1)c1ccco1 | 105 % of control

Give recorded T/C with P388 leukemia ip, CD2F1 mice, survival T/C for the following molecule: CC(C)N(C(C)C)C1C2=C(CCSC2)OC(=O)C1(Cl)Cl (configuration not stated)
103 % of control

And what about the molecule COC(=O)c1ccoc1 ?
96 % of control

And what about the molecule Cc1cccc(C)c1NC1c2ccccc2C=Cc2ccccc21 ?
87 % of control

And what about the molecule O=C(CNC(=O)OCc1ccccc1)Oc1ccccc1[N+](=O)[O-] ?
94 % of control

And what about the molecule CCCC(C(CC)CN(C)C)N(C)C (configuration not stated) ?
101 % of control

And what about the molecule Clc1c2c(c(Cl)c3c1=Nc1ncccc1O3)=Nc1ncccc1O2 ?
100 % of control

And what about the molecule CCCCCCCCCCCCCCCCCS(=O)S(=O)O (configuration not stated) ?
113 % of control

And what about the molecule O=C(Nc1ccccc1C(=O)c1ccccc1)Nc1ccc(F)cc1[N+](=O)[O-] ?
97 % of control

And what about the molecule CC(C)OC(=S)NC(=O)c1ccccc1 ?
109 % of control

* * *

Let's look at some molecules and their measured T/C.
System: P388 leukemia ip, CD2F1 mice, survival T/C
assay comment: NCI In Vivo Anticancer Drug Screen. Data for tumor model P388 Leukemia (intraperitoneal) in CD2F1 (CDF1) mice
measurement conditions: endpoint: median survival time; dose: 50.0 mg/kg/injection; schedule: Q01DX001 (ip); vehicle: saline with Tween-80; higher = longer survival
Toxic doses and inconclusive results are not listed.

A selection of reference data follows.
Cc1ccc2ncc(C)c(/C=C/c3ccc(N(C)C)cc3)c2c1 | 108 % of control
CC(=O)Oc1cc2oc([O-])c[n+]2c2ccccc12 | 106 % of control
CCOC(=O)Nc1cc(N(C)CC(O)c2ccccc2)c(N)c(N)n1 (centres undefined) | 104 % of control

Let us examine a further case.
// returns reported T/C for input NC(N)=NC(N)=Nc1cc2c3ccccc3ccc2c2ccccc12
98 % of control

* * *

Let's look at some molecules and their measured T/C.
Test system: P388 leukemia ip, CD2F1 mice, survival T/C
assay comment: NCI In Vivo Anticancer Drug Screen. Data for tumor model P388 Leukemia (intraperitoneal) in CD2F1 (CDF1) mice
measurement conditions: endpoint: median survival time; dose: 400.0 mg/kg/injection; schedule: Q04DX003 (ip); vehicle: saline with Tween-80; higher = longer survival
Inconclusive results and toxic doses are left out.

A selection of reference data follows.
CCOC(=O)C1CC1(C(=O)OCC)C(=O)OCC (configuration not stated) | 92 % of control
COc1ccc(NC(=S)Nc2ccccn2)cc1 | 112 % of control
CCCCC(CC)COC(OCC(CC)CCCC)C(OCC(CC)CCCC)OCC(CC)CCCC (configuration not stated) | 100 % of control
C/C(=C\N1CCN(c2ccc(F)cc2)CC1)C(=O)c1ccc(F)cc1 | 117 % of control
Clc1ccccc1/C=C/C=C1c2ccccc2-c2ccccc21 | 109 % of control

// returns reported T/C for input CCOC(=O)NC(=O)CCC(=O)Nc1ccc2ccccc2c1
96 % of control

And what about the molecule C(=C1c2ccccc2-c2ccccc21)c1ccccc1 ?
100 % of control

And what about the molecule NS(=O)(=O)c1cc(Br)ccc1Br ?
117 % of control

And what about the molecule O=C(/C=C/c1c(Cl)cccc1Cl)c1ccc(Cl)cc1 ?
109 % of control

And what about the molecule CC(=O)C1=C(c2ccc([N+](=O)[O-])cc2)NC(=O)NC1c1ccco1 (configuration not stated) ?
100 % of control

And what about the molecule CCc1nc(-c2ccccc2)c(-c2ccccc2)[nH]1 ?
95 % of control

And what about the molecule COc1ccc(Br)cc1/C=N\NS(=O)(=O)c1ccc(C)cc1 ?
108 % of control
